SYSTEM NAME: natural β-amyloid peptide β-AP1-40 (human)
Sequence (peptide, as listed by the source): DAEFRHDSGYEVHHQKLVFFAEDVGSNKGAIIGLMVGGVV
METHOD NOTES: cell-based or functional assay
* marks the point of attachment. Cholyl = C[C@H](CCC(=O)*)[C@H]1CC[C@H]2[C@@H]3[C@H](O)C[C@@H]4C[C@H](O)CC[C@]4(C)[C@H]3C[C@H](O)[C@]12C
QUANTITY NAME: % Inucl'n; nucleation assay; 33 mole % (%)
Give bare numbers, in %.

Query string: # % Inucl'n; nucleation assay; 33 mole % lookup, item Cholyl-HQKLVFF-OH (SMILES CC(C)C[C@H](NC(=O)[C@H](CCCCN)NC(=O)[C@H](CCC(N)=O)NC(=O)[C@H](Cc1c[nH]cn1)NC(=O)CC[C@@H](C)[C@H]1CC[C@H]2[C@@H]3[C@H](O)C[C@@H]4C[C@H](O)CC[C@]4(C)[C@H]3C[C@H](O)[C@]12C)C(=O)N[C@H](C(=O)N[C@@H](Cc1ccccc1)C(=O)N[C@@H](Cc1ccccc1)C(=O)O)C(C)C) [cholyl-Aβ14-20]
Result string: 70
